measured-on: human GLP-1R (Homo sapiens, UniProt P43220, G168S)
Sequence (P43220 24-463 G168S limits assumed): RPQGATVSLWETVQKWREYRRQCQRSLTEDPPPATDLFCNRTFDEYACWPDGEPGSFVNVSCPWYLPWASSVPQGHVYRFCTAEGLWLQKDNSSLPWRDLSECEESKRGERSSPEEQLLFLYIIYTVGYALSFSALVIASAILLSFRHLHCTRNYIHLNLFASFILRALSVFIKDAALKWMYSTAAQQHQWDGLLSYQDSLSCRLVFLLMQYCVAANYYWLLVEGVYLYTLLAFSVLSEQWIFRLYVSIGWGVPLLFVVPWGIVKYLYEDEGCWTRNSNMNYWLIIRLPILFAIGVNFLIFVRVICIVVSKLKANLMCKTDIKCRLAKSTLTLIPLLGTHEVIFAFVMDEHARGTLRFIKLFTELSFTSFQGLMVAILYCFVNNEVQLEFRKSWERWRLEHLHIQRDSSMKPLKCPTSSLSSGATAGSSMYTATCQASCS
assay-details: CHO GLP-1R Clone H6—Assay 1: HTRF cAMP cell-based functional agonist assay (high GLP-1R density)
measurement-conditions: CHO GLP-1R Clone H6; relative to saturating concentration of full agonist GLP-1 (1 μM); arithmetic mean
property-measured: Assay 1 Emax (%)
Remember to follow the number with its unit.

Example results:
- Cn1c(CN2CCC(c3cccc(OCc4ccc(Cl)cc4)n3)CC2)nc2ccc(C(=O)O)cc21 [Example 9A-07]: 78%
- COCCn1c(CN2CC[C@@H](c3cccc(OCc4ccc(Cl)cc4F)n3)[C@H](F)C2)nc2ccc(C(=O)O)cc21 (racemic) [Example 1A-22]: 78%
- N#Cc1ccc(COc2cccc(C3CCN(Cc4nc5ccc(C(=O)O)cc5n4CC4CCOC4)CC3)n2)c(F)c1 (single isomer, unassigned; enantiomer 1) [Example 14A-09]: 73%
- COCCn1c(CN2CCC(c3cccc(OCc4ccc(Cl)cc4F)n3)CC2C)nc2ccc(C(=O)O)cc21 (single isomer, unassigned) [Example 13A-01]: 58%
- COCCn1c(CN2CCC(c3cccc(OCc4ccc(Cl)cc4F)n3)CC2C)nc2ccc(C(=O)O)cc21 (single isomer, unassigned) [Example 13A-02]: 81%

Reported Assay 1 Emax (%) of CC(C)n1c(CN2CCC(c3cccc(OCc4ccc(Cl)cc4F)n3)CC2)nc2ccc(C(=O)O)cc21 [Example 10A-40] : 53%

====

measured-on: human GLP-1R (Homo sapiens, UniProt P43220, G168S)
assay-details: CHO GLP-1R Clone H6—Assay 1: HTRF cAMP cell-based functional agonist assay (high GLP-1R density)
measurement-conditions: read-out: Assay 1 EC50; CHO GLP-1R Clone H6, cAMP HTRF; geometric mean
property-measured: pEC50
Answer as the number alone; pEC50 is minus log10 of concentration in mol/L.

Answered cases to consult:
- N#Cc1ccc(COc2cccc(N3CCN(Cc4nc5ccc(C(=O)O)cc5n4C[C@@H]4CCO4)CC3)n2)c(F)c1: 9.47
- C[C@H]1CN(c2cccc(OCc3ccc(C#N)cc3F)n2)CCN1Cc1nc2ccc(C(=O)O)nc2n1C[C@@H]1CCO1 [Example 10A-09]: 9.00
- CCn1cncc1Cn1c(CN2CCN(c3cccc(OCc4ccc(C#N)cc4F)n3)CC2)nc2ccc(C(=O)O)cc21 [Example 10A-35]: 9.52
- Cc1nc2nc(CN3CCC(c4cccc(OCc5ccc(Cl)cc5F)n4)CC3)n(C)c2cc1C(=O)O: 6.47
- C[C@H]1CN(c2cccc(OCc3ccc(Cl)cc3F)n2)CCN1Cc1nc2ccc(C(=O)O)cc2n1C[C@@H]1CCO1: 9.55
- COCCn1c(CN2CCN(c3cccc(OCc4ccc(Cl)cc4F)n3)C(C)(C)C2)nc2ccc(C(=O)O)cc21: 6.12

For the next question, use this compound.
The value of pEC50 measured for the compound Cn1nccc1Cn1c(CN2CCC(c3cccc(OCc4ccc(Cl)cc4F)n3)CC2)nc2ccc(C(=O)O)cc21 [Example 11A-21] turned out to be 7.74

====

measured-on: human GLP-1R (Homo sapiens (Human), UniProt P43220, L260F)
Sequence (P43220 24-463 L260F): as the sequence (P43220 24-463 G168S limits assumed) above, with S145G, L237F counted along it
assay-details: CHO GLP-1R Clone C6—Assay 2: HTRF cAMP cell-based functional agonist assay (low GLP-1R density)
measurement-conditions: CHO GLP-1R Clone C6; relative to saturating concentration of full agonist GLP-1 (1 μM); arithmetic mean; read-out: Assay 2 Emax (%)
property-measured: Emax (%)
// return numeric value only (unit: %, not printed)

Reference set (5 entries):
* O=C(O)c1cc2c(cn1)nc(CN1CCC(c3cccc(OCc4ccc(Cl)cc4F)n3)CC1)n2Cc1ncco1 | 85
* O=C(O)c1ccc2nc(CN3CCC(c4cccc(OCc5ccc(Cl)cc5F)n4)CC3)n(Cc3cn[nH]c3)c2c1 [Example 11A-15] | 92
* O=C(O)c1ccc2nc(CN3CCC(c4cccc(OCc5ccc(Cl)cc5F)n4)CC3)n(C[C@H]3CCCO3)c2c1 [Example 11A-68] | 82
* O=C(O)c1ccc2nc(CN3CCC(c4cccc(OCc5ccc(Cl)cc5F)n4)CC3)n(Cc3nnc[nH]3)c2c1 [Example 11A-25] | 89
* O=C(O)c1ccc2nc(CN3CCC(c4cccc(OCc5ccc(Cl)cc5F)n4)CC3)n(Cc3ncco3)c2c1 [Example 10A-42] | 74

// Emax lookup, compound = COCCn1c(CN2CCN(c3ccc(F)c(OCc4ccc(C#N)cc4)n3)C[C@@H]2C)nc2ccc(C(=O)O)cc21 , result: 85

Measured Emax, O=C(O)c1ccc2nc(CN3CCC(c4cccc(OCc5ccc(F)cc5F)n4)CC3)n(C[C@@H]3CCO3)c2n1 : 95

Values were extracted from patent US10208019B2.
